assay: NCI Yeast Anticancer Drug Screen. Data for the mlh1 rad18 strain (AID 175); conditions: S. cerevisiae mlh1 rad18 strain growth inhibition; at 50.0 µM; stronger effect = higher value
About 79,000 compounds went through this panel and 15% of them were active in at least one assay; those are over-represented in the sample as a whole.
Please enter TRUE where growth inhibition is greater than or equal to 10%, and FALSE where it is lower.

Sample answers from the record:
compound: O=C(CCc1cc(O)ccc1O)OCCc1ccccc1
class.name: TRUE
--
compound: O=C(Cc1ccc(Cl)cc1)c1ccccc1Cl
class.name: FALSE
--
compound: Cc1nc2cc([N+](=O)[O-])ccc2c(NCCCN(C)C)c1C
class.name: FALSE
--
compound: CNc1ccccc1C
class.name: TRUE

Query: Quick check, growth inhibition >= 10%? `O=C(N=Nc1c(O)[nH]c2ccc(Br)cc12)c1ccncc1`
Response: FALSE

Query: Quick check, growth inhibition >= 10%? `COc1cccc(NC(=O)NC(C)(C)C)c1`
Response: FALSE

Query: Quick check, growth inhibition >= 10%? O=C(CC1Sc2ccccc2NC1=O)NNc1c(Cl)cc(Cl)cc1Cl (stereo not given)
Response: TRUE

Query: Quick check, growth inhibition >= 10%? Cc1ccc(N=C2N=C(N3CC(C)OC(C)C3)c3ccccc32)cc1 (stereo not given)
Response: FALSE

Query: Quick check, growth inhibition >= 10%? `C/C=C/C(=O)OC/C=C(\C)CCC=C(C)C`
Response: FALSE

Query: Quick check, growth inhibition >= 10%? `O=S(=O)([O-])Sn1c(-c2ccccc2)c[n+]2ccccc12`
Response: TRUE

Query: Quick check, growth inhibition >= 10%? `O=C(CCC(CCC(=O)c1ccccc1)[N+](=O)[O-])c1ccccc1`
Response: TRUE

Query: Quick check, growth inhibition >= 10%? OCCCCC1COC(c2ccccc2)O1 (stereo not given)
Response: FALSE

Query: Quick check, growth inhibition >= 10%? CC(=O)OC12c3ccccc3C(c3ccccc31)C1C(=O)N(c3ccccn3)C(=O)C12 (stereo not given)
Response: FALSE

Query: Quick check, growth inhibition >= 10%? O=C1C=CC(Nc2ccc(Cl)c(Cl)c2)C1Nc1ccc(Cl)c(Cl)c1 (stereo not given)
Response: TRUE

Query: Quick check, growth inhibition >= 10%? O=C(Nc1ccccc1)C1CC=C2CCC3OC(=O)C1C23 (stereo not given)
Response: FALSE

Query: Quick check, growth inhibition >= 10%? `Oc1cc(O)cc(/C=C/c2ccc(O)c(O)c2)c1`
Response: TRUE

Query: Quick check, growth inhibition >= 10%? CCC(=O)C12OC3OC(C)(C)OC3C1OC(C)(C)O2 (stereo not given)
Response: FALSE

Query: Quick check, growth inhibition >= 10%? `Nc1ccc(C(=O)O)cc1O`
Response: FALSE

Query: Quick check, growth inhibition >= 10%? `CN(C)CCOC(=S)S`
Response: FALSE

====

Assay: NCI Yeast Anticancer Drug Screen. Data for the cln2 rad14 strain (AID 165);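 further: 0% = growth equal to vehicle treated cultures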
Settings: S. cerevisiae cln2 rad14 strain, at 50.0 µM, stronger effect = higher value
Description: Growth inhibition of yeast strains with defined genetic alterations is measured as a screen for potential anti-cancer activity. Selected strains with alterations in DNA damage repair or cell cycle control were exposed to compounds and growth inhibition was measured relative to vehicle treated controls. The strain used in this assay is cln2 rad14
This is part of a sample that, as a whole, favours compounds with a hit. Of some 79,000 tested, about 15% had one in any assay.
observation.type: growth inhibition (%)
// return numeric value only (unit: %, not printed)

molecule: CCCCCCCC1CC(OCC)OC(CCCCCCC)O1 (stereo not drawn)
growth inhibition (%): -8.2
--
molecule: Nc1nc(C=O)c(CCc2ccccc2)c(=O)[nH]1
growth inhibition (%): -28.7
--
molecule: COC1=CC(=O)/C(=C(O)/C=C/c2ccccc2)C(=O)C1(C)C
growth inhibition (%): -2.5
--
molecule: COc1nc(NC2OC(CO)C(O)C(O)C2O)cc(=O)[nH]1 (stereo not drawn)
growth inhibition (%): -3.15
--
molecule: NC12CC3CC(C1)CC(Cl)(C3)C2
growth inhibition (%): -3.5
--
molecule: CCCCSc1nc2c([nH]1)c(=O)n(C)c(=O)n2C
growth inhibition (%): -34.5

Data point: `CCOc1ccc(NC=O)cc1` ; growth inhibition = -3.55

Data point: `CC1=C(O)C(=O)C(C2=C(O)C(=O)C(C)=C(O)C2=O)=C(O)C1=O` ; growth inhibition = 10

Data point: `O=C1CCC=Cc2c(O)ccc(O)c21` ; growth inhibition = 0.55
